Target: CaSla1-D1-D2
Experiment: SPOT peptide array binding signal intensity (averaged, normalized) (arbitrary units (background-subtracted, floor 0; scale differs between SH3 domains)); higher = stronger binding of the SH3 domain to the peptide
Classification field: enter met for SPOT peptide array binding signal intensity values not below 200, not met for values below it.

{"columns": ["binder", "category label"],
 "data": [
  ["PVLPPPRSPNRPTLS", "not met"],
  ["FPPKRKPLLRPQRSD", "met"],
  ["LLGRKRPVMERVVDI", "not met"],
  ["KKEKKPPKIPKKVYT", "not met"],
  ["NQARKPFLLPATELS", "not met"],
  ["LLRRTIPKRPFYHVL", "not met"],
  ["PLRRTVMSLPGNHDI", "met"],
  ["RKNRAPPQRPRFNRD", "met"],
  ["LEFRAILFIPKRAPF", "not met"],
  ["AATTSTPPLPRRRAT", "met"],
  ["KTKQQKPAIPQKKSF", "met"],
  ["TKRKRPARLIFYDSK", "not met"],
  ["LPMNIQPDLPPRKIM", "met"],
  ["GLRRARYKFPGQQKI", "not met"],
  ["PSRRDSLSIPRAVDA", "not met"]
]}
